Molecular target: T1, human C-MET His tagged, monomeric (human, UniProt P08581 25-932)
T1 construct: also called monomeric human C-MET; biotinylated human C-MET-His
T1 sequence (P08581 25-932): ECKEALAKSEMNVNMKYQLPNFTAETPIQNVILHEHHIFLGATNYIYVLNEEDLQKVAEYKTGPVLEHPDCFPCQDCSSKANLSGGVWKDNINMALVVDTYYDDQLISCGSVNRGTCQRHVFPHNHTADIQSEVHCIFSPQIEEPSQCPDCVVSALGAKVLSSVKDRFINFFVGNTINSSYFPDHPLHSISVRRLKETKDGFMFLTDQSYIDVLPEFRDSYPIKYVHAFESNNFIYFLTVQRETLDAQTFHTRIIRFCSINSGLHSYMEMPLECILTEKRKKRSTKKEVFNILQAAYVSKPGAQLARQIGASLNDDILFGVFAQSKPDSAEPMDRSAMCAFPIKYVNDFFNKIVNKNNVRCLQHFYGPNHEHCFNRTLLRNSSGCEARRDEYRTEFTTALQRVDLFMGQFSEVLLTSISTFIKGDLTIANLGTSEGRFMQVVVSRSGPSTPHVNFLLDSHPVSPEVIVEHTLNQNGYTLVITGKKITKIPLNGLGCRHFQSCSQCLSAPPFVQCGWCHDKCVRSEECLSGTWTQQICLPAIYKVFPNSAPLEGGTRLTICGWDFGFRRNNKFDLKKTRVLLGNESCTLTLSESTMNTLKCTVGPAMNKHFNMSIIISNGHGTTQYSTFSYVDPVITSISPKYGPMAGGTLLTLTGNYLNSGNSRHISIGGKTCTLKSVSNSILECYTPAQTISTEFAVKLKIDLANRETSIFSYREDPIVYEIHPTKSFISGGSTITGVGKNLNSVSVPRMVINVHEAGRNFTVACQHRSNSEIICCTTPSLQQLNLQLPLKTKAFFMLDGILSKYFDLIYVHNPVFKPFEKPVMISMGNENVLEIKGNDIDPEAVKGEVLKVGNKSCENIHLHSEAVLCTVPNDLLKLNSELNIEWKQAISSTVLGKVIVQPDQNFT
Assay: SPR Biacore, IgG captured, monomeric C-MET-His analyte
# kon per record follows
Parameter: kon (M⁻¹ s⁻¹)

[
  {
    "Binder": "MH4 (antibody, IgG4, V domains shown) VH: QVQLVQSGAEVKKPGASVKVSCKASGYTFTSYTMHWVRQAPGQGLEWMGWINPSGGSTSYAQKFQGRVTMTRDTSTSTVYMELSSLRSEDTAVYYCARQEITTEFDYWGQGTLVTVSS VL: EIVLTQSPGTLSLSPGERATLSCRASQSVSSYANSYLHWYQQKPGQAPRLLIYRGSTRESGIPDRFSGSGSGTDFTLTISRLEPEDFAVYYCQQSKSEPLTFGGGTKVEIK",
    "Output Unit": "M⁻¹ s⁻¹",
    "Measured Value": 87000
  },
  {
    "Binder": "09B08 (antibody, IgG4, V domains shown) VH: QVQLVQSGAEVKKPGASVKVSCKASGYTFTSYTMHWVRQAPGQGLEWMGWINPNNGSTNYAQKFQGRVTMTRDTSTSTVYMELSSLRSEDTAVYYCARSEITTDFDYWGQGTLVTVSS VL: EIVLTQSPGTLSLSPGERATLSCRASQSVSSYANSYLHWYQQKPGQAPRLLIYRGSTRESGIPDRFSGSGSGTDFTLTISRLEPEDFAVYYCQQSKSDPLTFGGGTKVEIK",
    "Output Unit": "M⁻¹ s⁻¹",
    "Measured Value": 37000
  },
  {
    "Binder": "09E04 (antibody, IgG4, V domains shown) VH: QVQLVQSGAEVKKPGASVKVSCKASGYIFTSYTMHWVRQAPGQGLEWMGWINPNGGSTSYAQKFQGRVTMTRDTSTSTVYMELSSLRSEDTAVYYCARQEITTEFDYWGQGTLVTVSS VL: EIVLTQSPGTLSLSPGERATLSCRASQSVESYANSYLHWYQQKPGQAPRLLIYRGSTRESGIPDRFSGSGSGTDFTLTISRLEPEDFAVYYCQQYGSEPLTFGGGTKVEIK",
    "Output Unit": "M⁻¹ s⁻¹",
    "Measured Value": 85000
  },
  {
    "Binder": "MH6 (antibody, IgG4, V domains shown) VH: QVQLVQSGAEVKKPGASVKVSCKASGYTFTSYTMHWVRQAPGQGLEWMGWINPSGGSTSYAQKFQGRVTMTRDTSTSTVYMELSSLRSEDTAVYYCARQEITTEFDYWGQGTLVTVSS VL: EIVLTQSPGTLSLSPGERATLSCRASQSVSSYAQSYLHWYQQKPGQAPRLLIYRGSTRETGIPDRFSGSGSGTDFTLTISRLEPEDFAVYYCQQYGSSPLTFGGGTKVEIK",
    "Output Unit": "M⁻¹ s⁻¹",
    "Measured Value": 65000
  },
  {
    "Binder": "MH8 (antibody, IgG4, V domains shown) VH: QVQLVQSGAEVKKPGASVKVSCKASGYTFTSYTMHWVRQAPGQGLEWMGIINPSGGSTSYAQKFQGRVTMTRDTSTSTVYMELSSLRSEDTAVYYCARQEITTEFDYWGQGTLVTVSS VL: EIVLTQSPGTLSLSPGERATLSCRASQSVSSYAQSYLHWYQQKPGQAPRLLIYRGSTRETGIPDRFSGSGSGTDFTLTISRLEPEDFAVYYCQQSGSSPLTFGGGTKVEIK",
    "Output Unit": "M⁻¹ s⁻¹",
    "Measured Value": 66000
  }
]
